- System: P388 leukemia ip, CD2F1 mice, survival T/C
- Run Description: NCI In Vivo Anticancer Drug Screen. Data for tumor model P388 Leukemia (intraperitoneal) in CD2F1 (CDF1) mice
- Run Conditions: endpoint: median survival time; dose: 50.0 mg/kg/injection; schedule: Q01DX009 (ip); vehicle: saline; higher = longer survival
Inconclusive results and toxic doses are left out.
We begin with a simple list: items and their reported T/C.

{"Compound": "CCOC(=O)C(Cc1c[nH]c2ccccc12)NCCN (configuration not stated)", "Observed Value": "99 % of control"}
{"Compound": "CCC[CH2][Ge](=[O])[CH2]CCC", "Observed Value": "103 % of control"}
{"Compound": "C/C(=N\\NC(=O)CCl)C(C)(C)C", "Observed Value": "109 % of control"}

*Q* Give me measured T/C, please, for this compound: CCN(CC)C(CC(=O)C(C)(C)C)=NCCCN1CCN(C)CC1
*A* 98 % of control

*Q* For the compound Cc1ccc(C#N)c(Cl)c1 , give its reported T/C.
*A* 100 % of control

*Q* Look up and state reported T/C for CC(=O)CC(=O)N(C)C
*A* 100 % of control

*Q* Specify T/C for CC1(C)OCC(N)(CO)CO1 and stop.
*A* 107 % of control

*Q* Find the measured T/C of CC(=O)N(O)c1ccc(C(N)=O)cc1 and report it.
*A* 99 % of control

====

- Tested on: P388 leukemia ip, CD2F1 mice, survival T/C
- Run Description: NCI In Vivo Anticancer Drug Screen. Data for tumor model P388 Leukemia (intraperitoneal) in CD2F1 (CDF1) mice
- Run Conditions: endpoint: median survival time; dose: 200.0 mg/kg/injection; schedule: Q04DX002 (ip); vehicle: saline; higher = longer survival
Toxic doses and inconclusive results are not listed.
Overview of recorded T/C for various compounds

Here's what some known entries look like.
{"Compound": "Cn1ccccc1=NCC(N)=O", "Assayed System": "P388 leukemia ip, CD2F1 mice, survival T/C", "T/C": "104 % of control"}
{"Compound": "COC(=O)C1CC2C(=O)N(C)C(Br)C(Br)C12 (configuration not stated)", "Assayed System": "P388 leukemia ip, CD2F1 mice, survival T/C", "T/C": "95 % of control"}
{"Compound": "Cc1ccc(NC(=S)SCc2ccccc2)cc1Cl", "Assayed System": "P388 leukemia ip, CD2F1 mice, survival T/C", "T/C": "100 % of control"}
{"Compound": "N#CNC(=S)S", "Assayed System": "P388 leukemia ip, CD2F1 mice, survival T/C", "T/C": "109 % of control"}
{"Compound": "CN1CCc2nc[nH]c2C1", "Assayed System": "P388 leukemia ip, CD2F1 mice, survival T/C", "T/C": "101 % of control"}
{"Compound": "Cc1ccc(S(=O)(=O)C(CC(=O)CCN(C)C)c2ccccc2)cc1 (configuration not stated)", "Assayed System": "P388 leukemia ip, CD2F1 mice, survival T/C", "T/C": "100 % of control"}

Query compound follows.
*Q* Consider the compound CC(NC(=O)c1cccc2c1Oc1ccccc1S2)C(=O)O (configuration not stated) and give its recorded T/C.
*A* 99 % of control

====

Known T/C of a selection of compounds
- Test system: P388 leukemia ip, CD2F1 mice, survival T/C
- Run Description: NCI In Vivo Anticancer Drug Screen. Data for tumor model P388 Leukemia (intraperitoneal) in CD2F1 (CDF1) mice
- Run Conditions: endpoint: median survival time; dose: 400.0 mg/kg/injection; schedule: Q04DX003 (ip); vehicle: Klucel (hydroxypropylcellulose) (HPC); higher = longer survival
Inconclusive results and toxic doses are left out.

Would you please look over these solved cases?
{"Compound": "O=C(O)CCC/C=N/O", "Measured Endpoint": "T/C", "Observed Value": "102 % of control"}
{"Compound": "O=C(O)CCCC12CCC(CCCC(=O)O)(CC1)CC2", "Measured Endpoint": "T/C", "Observed Value": "104 % of control"}
{"Compound": "CC1(C#N)CCCC(c2ccccc2)(c2ccccc2)C1=O (stereo not drawn)", "Measured Endpoint": "T/C", "Observed Value": "100 % of control"}
{"Compound": "C[C@@H]1CC(c2ccc(Cl)cc2)[C@@H](c2ccccc2)C(=O)O1 (stereo partly drawn)", "Measured Endpoint": "T/C", "Observed Value": "97 % of control"}
{"Compound": "O=C1CC(O)(c2ccccc2)CS1 (stereo not drawn)", "Measured Endpoint": "T/C", "Observed Value": "100 % of control"}
{"Compound": "CSc1nc(N)nc2c1ncn2C1CC(O)C(CO)O1 (stereo not drawn)", "Measured Endpoint": "T/C", "Observed Value": "106 % of control"}
{"Compound": "COc1ccc(CN2COc3c(cc(Cl)c4cccnc34)C2)cc1", "Measured Endpoint": "T/C", "Observed Value": "95 % of control"}
{"Compound": "CSC(=O)N(C)C(=O)Nc1cccc([N+](=O)[O-])c1", "Measured Endpoint": "T/C", "Observed Value": "90 % of control"}
{"Compound": "CCOP(=O)(O)OCC", "Measured Endpoint": "T/C", "Observed Value": "96 % of control"}
{"Compound": "CC(=O)/C=C/c1ccc([N+](=O)[O-])cc1", "Measured Endpoint": "T/C", "Observed Value": "97 % of control"}

*Q* Note T/C for the compound shown: FC(F)(F)c1ccc2c(N/N=C/c3ccc(N(CCCl)CCCl)cc3)ccnc2c1
*A* 90 % of control

*Q* Identify T/C associated with the compound CC1COCC(C)OC(C)COCC(C)OC(=O)COCC(=O)O1 (stereo not drawn)
*A* 103 % of control

*Q* Answer with the recorded T/C for the compound listed here: N#CC12C3C4C5C3C1n1c(=O)n(-c3ccccc3)c(=O)n1C5C42 (stereo not drawn)
*A* 107 % of control

*Q* Input CC1COCCOC(=O)COCC(=O)OCCOCC(C)O1 (stereo not drawn) , output reported T/C.
*A* 93 % of control

*Q* Quick one: give measured T/C for CNC(=O)C(C(=O)NC)c1ccccc1
*A* 96 % of control

*Q* Report T/C for CCCCC(=O)CCCCCCCCC(=O)OCC
*A* 95 % of control

*Q* Recall and state the measured T/C for CCOC(=O)COC1=NN(c2cccc(C(F)(F)F)c2)CC1 .
*A* 109 % of control

*Q* Give a short answer stating reported T/C for O=C(c1ccccc1)N1C2C=C(c3ccccc3)CC1CC2 (stereo not drawn) .
*A* 94 % of control
